We begin with a simple list: items and their reported IC50.
- systemUnderTest: HDAC2 (Homo sapiens)
- Construct: Recombinant, full-length HDAC protein (BPS Biosciences) was incubated with fluorophore conjugated substrate
- Sequence (Q92769 whole entry): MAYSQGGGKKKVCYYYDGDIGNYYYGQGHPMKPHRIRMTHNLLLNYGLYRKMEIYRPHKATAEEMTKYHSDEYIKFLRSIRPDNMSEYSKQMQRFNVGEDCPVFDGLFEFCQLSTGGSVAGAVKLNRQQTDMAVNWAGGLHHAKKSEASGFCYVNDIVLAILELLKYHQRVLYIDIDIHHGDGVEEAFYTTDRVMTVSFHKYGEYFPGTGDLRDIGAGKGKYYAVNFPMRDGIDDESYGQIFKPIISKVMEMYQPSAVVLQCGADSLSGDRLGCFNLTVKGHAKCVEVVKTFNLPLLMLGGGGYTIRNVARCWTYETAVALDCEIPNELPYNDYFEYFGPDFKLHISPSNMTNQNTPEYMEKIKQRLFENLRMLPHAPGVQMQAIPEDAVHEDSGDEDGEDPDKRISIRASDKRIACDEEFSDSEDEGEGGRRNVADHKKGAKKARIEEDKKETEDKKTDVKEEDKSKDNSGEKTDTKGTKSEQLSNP
- protocolSummary: In vitro HDAC enzyme inhibition assay, HDAC2
- conditionContext: recombinant full-length HDAC2, substrate MAZ1600 22 μM
measuredParameter: IC50 (nM)

smilesstructure=O=C(NO)c1ccc(Cn2cnc3cc(Br)ccc32)cc1 measvalue=26.7
smilesstructure=O=C(NO)c1ccc(Cn2c(C(F)(F)F)nc3cc(Br)ccc32)cc1 measvalue=146
smilesstructure=O=C(NO)c1ccc(Cn2nnc3ccccc32)cc1 measvalue=78.1
smilesstructure=O=C(NO)c1ccc(Cn2nnc3cc(Cl)ccc32)cc1 measvalue=141
smilesstructure=O=C(NO)c1ccc(Cn2nnc3cc(F)ccc32)cc1 measvalue=266
smilesstructure=COc1ccc2c(c1)nc(C(F)(F)F)n2Cc1ccc(C(=O)NO)cc1 measvalue=205
smilesstructure=Cc1ccc2c(c1)ncn2Cc1ccc(C(=O)NO)cc1 measvalue=290
smilesstructure=Cc1ccc2c(c1)nc(C(F)(F)F)n2Cc1ccc(C(=O)NO)cc1 measvalue=169
smilesstructure=COc1ccc2c(c1)ncn2Cc1ccc(C(=O)NO)cc1 measvalue=244
smilesstructure=O=C(NO)c1ccc(Cn2nnc3cc(Br)ccc32)cc1 measvalue=84.5
smilesstructure=O=C(NO)c1ccc(Cn2c(=O)[nH]c3ccccc32)cc1 measvalue=101
smilesstructure=O=C(NO)c1ccc(Cn2c(=O)[nH]c3cc(C(F)(F)F)ccc32)cc1 measvalue=10.9
smilesstructure=O=C(NO)c1ccc(Cn2cnc3cc(F)ccc32)cc1 measvalue=208

----------
- systemUnderTest: HDAC5 (Homo sapiens, UniProt Q9UQL6)
- Construct: Recombinant, full-length HDAC protein (BPS Biosciences) was incubated with fluorophore conjugated substrate; purchased BPS Biosciences
- Sequence (Q9UQL6 whole entry): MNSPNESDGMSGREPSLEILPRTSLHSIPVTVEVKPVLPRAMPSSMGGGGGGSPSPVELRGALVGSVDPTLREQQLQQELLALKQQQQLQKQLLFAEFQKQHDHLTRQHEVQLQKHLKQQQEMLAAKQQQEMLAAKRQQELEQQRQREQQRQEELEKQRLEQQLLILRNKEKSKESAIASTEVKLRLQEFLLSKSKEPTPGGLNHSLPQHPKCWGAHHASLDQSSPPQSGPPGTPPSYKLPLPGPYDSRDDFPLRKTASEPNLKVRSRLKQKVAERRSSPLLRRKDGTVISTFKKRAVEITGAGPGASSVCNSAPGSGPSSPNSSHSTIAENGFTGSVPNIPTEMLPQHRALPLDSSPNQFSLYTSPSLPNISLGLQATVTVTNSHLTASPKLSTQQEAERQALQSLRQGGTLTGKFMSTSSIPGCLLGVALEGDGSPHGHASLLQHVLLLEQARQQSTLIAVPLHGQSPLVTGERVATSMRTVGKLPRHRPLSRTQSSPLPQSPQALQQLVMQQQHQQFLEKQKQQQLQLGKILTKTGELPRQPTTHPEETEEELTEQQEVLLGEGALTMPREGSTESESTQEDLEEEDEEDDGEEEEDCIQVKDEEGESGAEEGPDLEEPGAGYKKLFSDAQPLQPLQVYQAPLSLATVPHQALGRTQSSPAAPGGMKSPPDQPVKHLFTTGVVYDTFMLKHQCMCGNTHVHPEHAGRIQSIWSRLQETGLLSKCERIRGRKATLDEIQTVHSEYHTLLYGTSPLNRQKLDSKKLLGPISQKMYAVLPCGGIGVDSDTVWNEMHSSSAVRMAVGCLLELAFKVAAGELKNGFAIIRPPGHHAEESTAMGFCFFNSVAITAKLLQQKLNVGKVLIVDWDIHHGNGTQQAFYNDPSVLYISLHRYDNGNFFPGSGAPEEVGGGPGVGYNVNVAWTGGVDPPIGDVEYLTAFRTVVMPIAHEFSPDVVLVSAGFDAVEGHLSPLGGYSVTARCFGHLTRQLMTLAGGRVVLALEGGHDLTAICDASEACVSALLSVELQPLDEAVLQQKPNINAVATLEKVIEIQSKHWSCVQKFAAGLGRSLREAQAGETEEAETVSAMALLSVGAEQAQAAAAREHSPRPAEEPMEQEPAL
- protocolSummary: In vitro HDAC enzyme inhibition assay, HDAC5
- Format: biochemical
- conditionContext: ratio of IC50 for HDAC5 relative to that of HDAC6
Recorded measurements of HDAC5/HDAC6 in vitro selectivity, one per entry
measuredParameter: HDAC5/HDAC6 in vitro selectivity

smilesstructure=O=C(NO)c1ccc(Cn2c(=O)[nH]c3ccccc32)cc1 measuredparameter="HDAC5/HDAC6 in vitro selectivity" measvalue=117927
smilesstructure=O=C(NO)c1ccc(Cn2c(=O)[nH]c3cc(F)ccc32)cc1 measuredparameter="HDAC5/HDAC6 in vitro selectivity" measvalue=51438
smilesstructure=O=C(NO)c1ccc(Cn2c(C(F)(F)F)nc3cc(Cl)ccc32)cc1 measuredparameter="HDAC5/HDAC6 in vitro selectivity" measvalue=246
smilesstructure=Cc1ccc2c(c1)nc(C(F)(F)F)n2Cc1ccc(C(=O)NO)cc1 measuredparameter="HDAC5/HDAC6 in vitro selectivity" measvalue=537
smilesstructure=O=C(NO)c1ccc(Cn2cnc3ccccc32)cc1 measuredparameter="HDAC5/HDAC6 in vitro selectivity" measvalue=9794
smilesstructure=COc1ccc2c(c1)ncn2Cc1ccc(C(=O)NO)cc1 measuredparameter="HDAC5/HDAC6 in vitro selectivity" measvalue=7819
smilesstructure=Cc1ccc2c(c1)ncn2Cc1ccc(C(=O)NO)cc1 measuredparameter="HDAC5/HDAC6 in vitro selectivity" measvalue=3687
smilesstructure=O=C(NO)c1ccc(Cn2nnc3cc(F)ccc32)cc1 measuredparameter="HDAC5/HDAC6 in vitro selectivity" measvalue=68665
smilesstructure=O=C(NO)c1ccc(Cn2c(=O)[nH]c3cc(Cl)ccc32)cc1 measuredparameter="HDAC5/HDAC6 in vitro selectivity" measvalue=22793
smilesstructure=COc1ccc2c(c1)[nH]c(=O)n2Cc1ccc(C(=O)NO)cc1 measuredparameter="HDAC5/HDAC6 in vitro selectivity" measvalue=57925
smilesstructure=O=C(NO)c1ccc(Cn2cnc3cc(Br)ccc32)cc1 measuredparameter="HDAC5/HDAC6 in vitro selectivity" measvalue=25649

----------
- systemUnderTest: HDAC3 (Homo sapiens, UniProt O15379)
- Construct: Recombinant, full-length HDAC protein (BPS Biosciences) was incubated with fluorophore conjugated substrate
- Sequence (O15379 whole entry): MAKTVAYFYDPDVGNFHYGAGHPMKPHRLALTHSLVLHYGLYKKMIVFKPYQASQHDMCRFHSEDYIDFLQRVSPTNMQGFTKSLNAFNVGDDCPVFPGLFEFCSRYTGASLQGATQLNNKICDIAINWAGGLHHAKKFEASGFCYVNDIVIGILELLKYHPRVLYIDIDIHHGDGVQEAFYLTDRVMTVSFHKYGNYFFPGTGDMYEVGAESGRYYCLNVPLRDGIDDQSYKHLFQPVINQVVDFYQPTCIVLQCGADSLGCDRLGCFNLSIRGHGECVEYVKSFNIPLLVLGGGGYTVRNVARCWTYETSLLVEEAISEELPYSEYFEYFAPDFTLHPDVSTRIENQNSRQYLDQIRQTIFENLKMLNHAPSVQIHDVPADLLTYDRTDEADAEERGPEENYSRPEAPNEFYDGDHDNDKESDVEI
- Sequence (Q9Y618 395-489 partner limits assumed): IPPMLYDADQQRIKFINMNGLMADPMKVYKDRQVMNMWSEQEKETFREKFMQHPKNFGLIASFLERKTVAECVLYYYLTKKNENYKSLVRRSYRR
- protocolSummary: In vitro HDAC enzyme inhibition assay, HDAC3
- conditionContext: recombinant full-length HDAC3, substrate MAZ1600 9 μM
Threshold-based label: IC50 under 200 nM gives Y, IC50 not under 200 nM gives N.

smilesstructure=O=C(NO)c1ccc(Cn2c(C(F)(F)F)nc3cc(Cl)ccc32)cc1 cat=N
smilesstructure=COc1ccc2c(c1)[nH]c(=O)n2Cc1ccc(C(=O)NO)cc1 cat=Y
smilesstructure=Cc1ccc2c(c1)nc(C(F)(F)F)n2Cc1ccc(C(=O)NO)cc1 cat=N
smilesstructure=O=C(NO)c1ccc(Cn2nnc3cc(F)ccc32)cc1 cat=N
smilesstructure=O=C(NO)c1ccc(Cn2c(=O)[nH]c3ccccc32)cc1 cat=N
smilesstructure=O=C(NO)c1ccc(Cn2c(=O)[nH]c3cc(Cl)ccc32)cc1 cat=Y
smilesstructure=O=C(NO)c1ccc(Cn2nnc3cc(Cl)ccc32)cc1 cat=N
smilesstructure=Cc1ccc2c(c1)[nH]c(=O)n2Cc1ccc(C(=O)NO)cc1 cat=Y
smilesstructure=O=C(NO)c1ccc(Cn2cnc3ccccc32)cc1 cat=N
smilesstructure=O=C(NO)c1ccc(Cn2cnc3cc(Cl)ccc32)cc1 cat=N
smilesstructure=COc1ccc2c(c1)ncn2Cc1ccc(C(=O)NO)cc1 cat=N

----------
- systemUnderTest: HDAC5 (Homo sapiens)
- Construct: Recombinant, full-length HDAC protein (BPS Biosciences) was incubated with fluorophore conjugated substrate; purchased BPS Biosciences
- protocolSummary: In vitro HDAC enzyme inhibition assay, HDAC5
- Format: biochemical
- conditionContext: ratio of IC50 for HDAC5 relative to that of HDAC6
measuredParameter: HDAC5/HDAC6 in vitro selectivity

smilesstructure=O=C(NO)c1ccc(Cn2c(C(F)(F)F)nc3ccccc32)cc1 measvalue=953
smilesstructure=COc1ccc2c(c1)nc(C(F)(F)F)n2Cc1ccc(C(=O)NO)cc1 measvalue=637
smilesstructure=O=C(NO)c1ccc(Cn2nnc3cc(Cl)ccc32)cc1 measvalue=26352
smilesstructure=O=C(NO)c1ccc(Cn2c(=O)[nH]c3cc(C(F)(F)F)ccc32)cc1 measvalue=122813
smilesstructure=O=C(NO)c1ccc(Cn2cnc3cc(Cl)ccc32)cc1 measvalue=9686
smilesstructure=O=C(NO)c1ccc(Cn2c(=O)[nH]c3cc(Br)ccc32)cc1 measvalue=39409
smilesstructure=O=C(NO)c1ccc(Cn2c(C(F)(F)F)nc3cc(Br)ccc32)cc1 measvalue=476
smilesstructure=O=C(NO)c1ccc(Cn2c(C(F)(F)F)nc3cc(F)ccc32)cc1 measvalue=486
smilesstructure=Cc1ccc2c(c1)[nH]c(=O)n2Cc1ccc(C(=O)NO)cc1 measvalue=229909
smilesstructure=O=C(NO)c1ccc(Cn2nnc3ccccc32)cc1 measvalue=59773
smilesstructure=O=C(NO)c1ccc(Cn2nnc3cc(Br)ccc32)cc1 measvalue=48751
smilesstructure=O=C(NO)c1ccc(Cn2cnc3cc(F)ccc32)cc1 measvalue=15350

----------
- systemUnderTest: HDAC1 (Homo sapiens)
- Construct: Recombinant, full-length HDAC protein (BPS Biosciences) was incubated with fluorophore conjugated substrate
- Sequence (Q13547 whole entry): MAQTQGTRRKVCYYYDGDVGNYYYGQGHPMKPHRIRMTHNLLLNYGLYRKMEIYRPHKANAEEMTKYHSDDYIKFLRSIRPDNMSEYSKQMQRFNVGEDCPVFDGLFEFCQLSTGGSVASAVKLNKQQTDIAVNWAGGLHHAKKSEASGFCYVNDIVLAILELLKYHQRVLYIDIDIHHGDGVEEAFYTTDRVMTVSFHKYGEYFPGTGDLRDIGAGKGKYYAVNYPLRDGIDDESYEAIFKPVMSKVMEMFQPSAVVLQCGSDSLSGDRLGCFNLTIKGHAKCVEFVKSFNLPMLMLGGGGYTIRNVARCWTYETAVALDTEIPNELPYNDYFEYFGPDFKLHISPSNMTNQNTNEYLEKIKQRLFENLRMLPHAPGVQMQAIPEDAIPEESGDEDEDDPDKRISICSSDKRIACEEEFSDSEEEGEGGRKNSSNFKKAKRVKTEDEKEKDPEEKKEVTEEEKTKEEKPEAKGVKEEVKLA
- protocolSummary: In vitro HDAC enzyme inhibition assay, HDAC1
- conditionContext: recombinant full-length HDAC1, substrate MAZ1600 21 μM
pIC50: −log10 of the molar value.
measuredParameter: pIC50

smilesstructure=COc1ccc2c(c1)nc(C(F)(F)F)n2Cc1ccc(C(=O)NO)cc1 measvalue=6.61
smilesstructure=COc1ccc2c(c1)ncn2Cc1ccc(C(=O)NO)cc1 measvalue=6.52
smilesstructure=O=C(NO)c1ccc(Cn2nnc3cc(Br)ccc32)cc1 measvalue=7.26
smilesstructure=O=C(NO)c1ccc(Cn2c(C(F)(F)F)nc3cc(Br)ccc32)cc1 measvalue=6.78
smilesstructure=O=C(NO)c1ccc(Cn2c(=O)[nH]c3cc(Br)ccc32)cc1 measvalue=7.98
smilesstructure=Cc1ccc2c(c1)[nH]c(=O)n2Cc1ccc(C(=O)NO)cc1 measvalue=7.88
smilesstructure=O=C(NO)c1ccc(Cn2cnc3cc(Br)ccc32)cc1 measvalue=7.54
smilesstructure=O=C(NO)c1ccc(Cn2c(C(F)(F)F)nc3cc(F)ccc32)cc1 measvalue=6.33
smilesstructure=Cc1ccc2c(c1)nc(C(F)(F)F)n2Cc1ccc(C(=O)NO)cc1 measvalue=6.61
smilesstructure=Cc1ccc2c(c1)ncn2Cc1ccc(C(=O)NO)cc1 measvalue=6.58
smilesstructure=O=C(NO)c1ccc(Cn2nnc3cc(Cl)ccc32)cc1 measvalue=7.02
smilesstructure=O=C(NO)c1ccc(Cn2c(C(F)(F)F)nc3cc(Cl)ccc32)cc1 measvalue=6.40

----------
- systemUnderTest: HDAC9 (Homo sapiens, UniProt Q9UKV0)
- Construct: Recombinant, full-length HDAC protein (BPS Biosciences) was incubated with fluorophore conjugated substrate; purchased BPS Biosciences
- Sequence (Q9UKV0 whole entry): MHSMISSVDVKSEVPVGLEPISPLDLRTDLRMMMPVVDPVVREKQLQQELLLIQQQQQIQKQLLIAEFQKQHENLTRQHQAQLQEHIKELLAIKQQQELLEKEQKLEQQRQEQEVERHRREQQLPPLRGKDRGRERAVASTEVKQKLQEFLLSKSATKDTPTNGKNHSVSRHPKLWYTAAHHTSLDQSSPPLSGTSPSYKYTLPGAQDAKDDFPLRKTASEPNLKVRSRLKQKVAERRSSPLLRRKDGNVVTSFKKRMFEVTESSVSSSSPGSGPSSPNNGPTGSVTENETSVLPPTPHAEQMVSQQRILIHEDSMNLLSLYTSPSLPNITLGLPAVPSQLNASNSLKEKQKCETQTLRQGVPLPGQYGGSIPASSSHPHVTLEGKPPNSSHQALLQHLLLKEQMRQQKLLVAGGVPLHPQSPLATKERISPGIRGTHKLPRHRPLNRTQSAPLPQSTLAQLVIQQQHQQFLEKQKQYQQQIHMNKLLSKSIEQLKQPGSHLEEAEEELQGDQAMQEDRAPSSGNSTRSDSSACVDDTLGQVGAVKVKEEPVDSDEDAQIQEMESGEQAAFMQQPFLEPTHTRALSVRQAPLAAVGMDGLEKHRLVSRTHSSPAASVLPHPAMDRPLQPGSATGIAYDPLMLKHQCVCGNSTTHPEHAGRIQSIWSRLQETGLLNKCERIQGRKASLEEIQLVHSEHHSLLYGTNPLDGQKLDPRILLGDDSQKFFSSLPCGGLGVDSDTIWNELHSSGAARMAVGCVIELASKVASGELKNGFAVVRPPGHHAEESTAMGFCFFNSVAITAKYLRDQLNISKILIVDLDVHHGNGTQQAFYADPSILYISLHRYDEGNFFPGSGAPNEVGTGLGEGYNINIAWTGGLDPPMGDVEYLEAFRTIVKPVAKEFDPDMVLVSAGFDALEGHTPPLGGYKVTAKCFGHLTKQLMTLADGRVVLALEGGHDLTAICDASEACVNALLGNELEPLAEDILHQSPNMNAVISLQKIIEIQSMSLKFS
- protocolSummary: In vitro HDAC enzyme inhibition assay, HDAC9
- Format: biochemical
- conditionContext: ratio of IC50 for HDAC9 relative to that of HDAC6
In this section, each of the compounds is paired with its reported HDAC9/HDAC6 in vitro selectivity.
measuredParameter: HDAC9/HDAC6 in vitro selectivity

smilesstructure=O=C(NO)c1ccc(Cn2c(=O)[nH]c3ccccc32)cc1 measvalue=155186
smilesstructure=O=C(NO)c1ccc(Cn2cnc3cc(Br)ccc32)cc1 measvalue=61100
smilesstructure=O=C(NO)c1ccc(Cn2c(=O)[nH]c3cc(Cl)ccc32)cc1 measvalue=16475
smilesstructure=O=C(NO)c1ccc(Cn2c(=O)[nH]c3cc(Br)ccc32)cc1 measvalue=39480
smilesstructure=O=C(NO)c1ccc(Cn2c(C(F)(F)F)nc3cc(F)ccc32)cc1 measvalue=2127
smilesstructure=O=C(NO)c1ccc(Cn2c(C(F)(F)F)nc3cc(Br)ccc32)cc1 measvalue=2420
smilesstructure=O=C(NO)c1ccc(Cn2nnc3cc(F)ccc32)cc1 measvalue=62138
smilesstructure=Cc1ccc2c(c1)nc(C(F)(F)F)n2Cc1ccc(C(=O)NO)cc1 measvalue=1942
smilesstructure=O=C(NO)c1ccc(Cn2nnc3cc(Br)ccc32)cc1 measvalue=42107
smilesstructure=O=C(NO)c1ccc(Cn2nnc3cc(Cl)ccc32)cc1 measvalue=26037
smilesstructure=COc1ccc2c(c1)nc(C(F)(F)F)n2Cc1ccc(C(=O)NO)cc1 measvalue=1871
smilesstructure=COc1ccc2c(c1)ncn2Cc1ccc(C(=O)NO)cc1 measvalue=10933
